- Experimental Details: Half life in ICR/CD-1 mouse liver microsomes at 2 uM preincubated for 5 mins followed by NADPH regenerating system addition by LC-MS/MS analysis
- Type: ADME, Microsome
Quick list: half-life at 2 µM per entry.
Your answer is read as min, so omit the unit and give the number.

The following molecules have reported results that may help.
# Molecule, half-life at 2 µM (min)
data = [
    ("CC(C)(C)OC(=O)Nc1ccc(C2=NN(C(=O)c3ccc(Br)cc3)C(c3ccccc3)C2)cc1 (racemic)", 120),
    ("CC(C)OC(=O)Nc1ccc(C2=NN(C(=O)c3ccc(Br)cc3)C(c3ccccc3)C2)cc1 (racemic)", 120),
    ("CS(=O)(=O)Nc1ccc(C2=NN(C(=O)c3ccc(C(F)(F)F)cc3)C(c3ccco3)C2)cc1 (racemic)", 2.9),
]

Can you look up the measured half-life at 2 µM of Cc1ccc(C(=O)N2N=C(c3ccc(NS(C)(=O)=O)cc3)CC2c2ccco2)cc1 (racemic) for me?
2.9

Can you look up the measured half-life at 2 µM of CS(=O)(=O)Nc1ccc(C2=NN(C(=O)c3ccc(Br)cc3)C(c3ccco3)C2)cc1 (racemic) for me?
2.9

Can you look up the measured half-life at 2 µM of CC(C)(C)OC(=O)Nc1ccc(C2=NN(C(=O)c3ccc([N+](=O)[O-])cc3)C(c3ccccc3)C2)cc1 (racemic) for me?
120

Can you look up the measured half-life at 2 µM of Cc1ccc(C(=O)N2N=C(c3ccc(NS(C)(=O)=O)cc3)CC2c2ccccc2Br)cc1 (stereo not drawn) for me?
2.9

Can you look up the measured half-life at 2 µM of CS(=O)(=O)Nc1ccc(C2=NN(C(=O)c3ccc([N+](=O)[O-])cc3)C(c3ccco3)C2)cc1 (racemic) for me?
2.9

====

- Target Under Test: Apoptosis regulator Bcl-2 (Homo sapiens)
- Experimental Details: Inhibition of biotin-linker-Beclin 1 BH3 peptide binding to human C-terminal 6His-tagged Bcl-2 (1 to 218 residues) expressed in Escherichia coli BL21 Star (DE3) pLysS measured after 3 hrs by AlphaLISA assay
Quick list: IC50 per entry.
Your answer is read as nM, so omit the unit and give the number.

The following compounds have reported results that may help.
# Compound, IC50 / nM
measured = [
    ("CC(C)(C)OC(=O)Nc1ccc(C2=NN(C(=O)c3cccnc3)C(c3ccccc3)C2)cc1 (racemic)", 14500),
    ("CC(C)(C)OC(=O)Nc1ccc(C2=NN(C(=O)c3ccc(Br)cc3)C(c3ccco3)C2)cc1 (racemic)", 1260),
    ("COc1ccc(C(=O)N2N=C(c3ccc(NS(C)(=O)=O)cc3)CC2c2ccco2)cc1 (racemic)", 10100),
    ("CS(=O)(=O)Nc1ccc(C2=NN(C(=O)c3ccc([N+](=O)[O-])cc3)C(c3ccco3)C2)cc1 (racemic)", 1970),
    ("CS(=O)(=O)Nc1ccc(C2=NN(C(=O)c3ccc(F)cc3)C(c3ccco3)C2)cc1 (racemic)", 12700),
]

Can you look up the measured IC50 of CC(C)OC(=O)Nc1ccc(C2=NN(C(=O)c3ccc(Br)cc3)C(c3ccccc3)C2C)cn1 (racemic) for me?
2

Can you look up the measured IC50 of CS(=O)(=O)Nc1ccc(C2=NN(C(=O)c3ccc(C(F)(F)F)cc3)C(c3ccco3)C2)cc1 (racemic) for me?
2880

Can you look up the measured IC50 of CC(C)(C)OC(=O)Nc1ccc(C2=NN(C(=O)c3ccc(Br)cc3)C(c3nccs3)C2)cc1 (racemic) for me?
1610

Can you look up the measured IC50 of CC(C)(C)OC(=O)Nc1ccc(C2=NN(C(=O)c3ccc(Br)cc3)C(c3ccncc3)C2)cc1 (racemic) for me?
2780

====

- Target Under Test: Apoptosis regulator Bcl-2 (Homo sapiens, UniProt P10415)
- Sequence (P10415 whole entry, the tested form may be a part): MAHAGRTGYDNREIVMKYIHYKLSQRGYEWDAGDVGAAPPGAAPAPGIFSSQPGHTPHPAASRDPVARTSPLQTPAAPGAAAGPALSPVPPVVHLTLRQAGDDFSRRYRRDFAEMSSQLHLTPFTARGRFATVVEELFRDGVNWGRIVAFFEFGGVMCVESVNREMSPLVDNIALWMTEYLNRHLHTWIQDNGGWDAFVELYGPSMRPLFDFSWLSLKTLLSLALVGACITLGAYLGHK
- Experimental Details: Inhibition of biotin-linker-Beclin 1 BH3 peptide binding to human C-terminal 6His-tagged Bcl-2 (1 to 218 residues) expressed in Escherichia coli BL21 Star (DE3) pLysS measured after 3 hrs by AlphaLISA assay
Quick list: pIC50 per entry.
Note on pIC50: it is the negative log10 of concentration, concentration in mol/L.

The following compounds have reported results that may help.
# Compound, pIC50
records = [
    ("Cc1ccc(C(=O)N2N=C(c3ccc(NC(=O)OC(C)(C)C)cc3)CC2c2ccco2)cc1 (racemic)", 5.48),
    ("CC(C)(C)OC(=O)Nc1ccc(C2=NN(C(=O)c3ccc(Br)cc3)C(c3ccoc3)C2)cc1 (racemic)", 5.42),
    ("CC(C)(C)OC(=O)Nc1ccc(C2=NN(C(=O)c3ccc(Br)cc3)C(c3ccccc3)C2)nc1 (racemic)", 6.43),
]

# value lookup — system Apoptosis regulator Bcl-2 (Homo sapiens, UniProt P10415), readout pIC50, item O=C(Nc1ccc(C2=NN(C(=O)c3ccc(Br)cc3)C(c3ccccc3)C2)cc1)OC1CC1 (racemic)
7.36

# value lookup — system Apoptosis regulator Bcl-2 (Homo sapiens, UniProt P10415), readout pIC50, item C#CCCOC(=O)Nc1ccc(C2=NN(C(=O)c3ccc(Br)cc3)C(c3ccccc3)C2)cc1 (racemic)
7.19

# value lookup — system Apoptosis regulator Bcl-2 (Homo sapiens, UniProt P10415), readout pIC50, item CC(C)C(=O)Oc1ccc(C2=NN(C(=O)c3ccc(Br)cc3)C(c3ccccc3)C2)cc1 (racemic)
5.26

# value lookup — system Apoptosis regulator Bcl-2 (Homo sapiens, UniProt P10415), readout pIC50, item CC(C)(C)NC(=O)Nc1ccc(C2=NN(C(=O)c3ccc(Br)cc3)C(c3ccccc3)C2)cc1 (racemic)
5.04

# value lookup — system Apoptosis regulator Bcl-2 (Homo sapiens, UniProt P10415), readout pIC50, item CC(C)OC(=O)Nc1ccc(C2=NN(C(=O)c3ccc(Br)cc3)C(c3ccccc3)C2)cc1 (racemic)
8.36

====

- Target Under Test: UniProt:P10415
- Experimental Details: Inhibition of biotin-linker-Beclin 1 BH3 peptide binding to human C-terminal 6His-tagged Bcl-2 (1 to 218 residues) expressed in Escherichia coli BL21 Star (DE3) pLysS measured after 3 hrs by AlphaLISA assay
Quick list: pIC50 per entry.
Note on pIC50: it is the negative log10 of concentration, concentration in mol/L.

The following compounds have reported results that may help.
# Compound, Readout, Experimental Value
records = [
    ("CC(C)(C)OC(=O)Nc1ccc(C2=NN(C(=O)c3ccc(Br)cc3)C(c3ccccc3)C2c2ccccc2)cc1 (racemic)", "pIC50", 6.76),
    ("CC(C)(C)OC(=O)Nc1ccc(C2=NN(C(=O)c3ccc(Br)cc3)C(c3ccccc3)C2)cc1 (racemic)", "pIC50", 6.58),
    ("COC(=O)c1ccc(C2=NN(C(=O)c3ccc(Br)cc3)C(c3ccccc3)C2)cc1 (racemic)", "pIC50", 5.79),
]

Can you look up the measured pIC50 of CS(=O)(=O)Nc1ccc(C2=NN(C(=O)c3ccc(C#N)cc3)C(c3ccco3)C2)cc1 (racemic) for me?
5.13

Can you look up the measured pIC50 of C=CCOC(=O)Nc1ccc(C2=NN(C(=O)c3ccc(Br)cc3)C(c3ccccc3)C2)cc1 (racemic) for me?
7.50

====

- Target Under Test: Apoptosis regulator Bcl-2 (Homo sapiens)
- Experimental Details: Inhibition of biotin-linker-Bax BH3 peptide binding to human C-terminal 6His-tagged Bcl-2 (1 to 218 residues) expressed in Escherichia coli BL21 Star (DE3) pLysS measured after 3 hrs by AlphaLISA assay
Readout: IC50 (nM)
Your answer is read as nM, so omit the unit and give the number.

The following compounds have reported results that may help.
# Compound, Target Under Test, Measure Unit, IC50
measured = [
    ("C=CCOC(=O)Nc1ccc(C2=NN(C(=O)c3ccc(Br)cc3)C(c3ccccc3)C2)cc1 (racemic)", "Apoptosis regulator Bcl-2 (Homo sapiens)", "nM", 8830),
    ("CC(C)OC(=O)Nc1ccc(C2=NN(C(=O)c3ccc(Br)cc3)C(c3ccccc3)C2C)cn1 (racemic)", "Apoptosis regulator Bcl-2 (Homo sapiens)", "nM", 157),
    ("CC(C)OC(=O)c1ccc(C2=NN(C(=O)c3ccc(Br)cc3)C(c3ccccc3)C2)cc1 (racemic)", "Apoptosis regulator Bcl-2 (Homo sapiens)", "nM", 4360),
]

// next entry
# value lookup — system Apoptosis regulator Bcl-2 (Homo sapiens), readout IC50, item CC(C)OC(=O)Nc1ccc(C2=NN(C(=O)c3ccc(Br)cc3)C(c3ccccc3)C2)cc1 (racemic)
881

====

- Target Under Test: UniProtKB P10415
- Experimental Details: Inhibition of biotin-linker-Beclin 1 BH3 peptide binding to human C-terminal 6His-tagged Bcl-2 (1 to 218 residues) expressed in Escherichia coli BL21 Star (DE3) pLysS measured after 3 hrs by AlphaLISA assay
Readout: IC50 (nM)
Your answer is read as nM, so omit the unit and give the number.

# Compound, Target Under Test, IC50, nM
data = [
    ("CC(C)(C)OC(=O)Nc1ccc(C2=NN(C(=O)c3ccc(Br)cc3)C(c3cccnc3)C2)cc1 (racemic)", "UniProtKB P10415", 1630),
    ("CC(C)(C)OC(=O)Nc1ccc(C2=NN(C(=O)c3ccc(Br)cc3)C(c3cncs3)C2)cc1 (racemic)", "UniProtKB P10415", 4360),
    ("CN(C)C(=O)c1ccc(C2=NN(C(=O)c3ccc(Br)cc3)C(c3ccccc3)C2)cc1 (racemic)", "UniProtKB P10415", 5910),
]

// next entry
Can you look up the measured IC50 of CC(C)OC(=O)c1ccc(C2=NN(C(=O)c3ccc(Br)cc3)C(c3ccccc3)C2)cc1 (racemic) for me?
110
